Record form. Attribute: TGI. Fill in for each entry.
System: OVCAR-8 ovarian
Assay: NCI tumour cell line growth inhibition, 48 h

Examples with their reported TGI follow.
O=C(CC(=O)CC(O)(C(F)(F)F)C(F)(F)F)CC(O)(C(F)(F)F)C(F)(F)F : > 10 µM
CNC(=O)c1cncc(/C=C/c2ccccc2C)c1 : > 25 µM
CC(=O)NS(=O)(=O)c1ccc(NC(=O)c2c3ccccc3nc3ccccc23)cc1 : > 100 µM
COc1ccc2nc3cc([N+](=O)[O-])ccc3c(NCCCCCN(C)C)c2c1 : 1.32 µM
CCCCOc1ccc(NC(N)=Nc2ccc(Cl)cc2)cc1 : 25 µM
CSC1CC2C(CC1(C)O)C2(C)C (centres undefined) : > 100 µM

Provide TGI values for the following items, in order.
1. COC(=O)c1c(C)cccc1/C=C1/Cc2c(C)cccc2C1=O
2. CCCCOC(C)(C)/C=C/C(O)[C@](C)(O)[C@H]1[C@H](O)C[C@@]2(C)[C@@H]3CCc4c(cc(OC5OC(CO)C(O)C(O)C5O)c(O)c4C)C3(C)C(=O)C[C@]12C (some centres undefined)
3. Cc1cc(N(CCC#N)S(=O)(=O)c2ccccc2)ccc1/C=C1N=C(/C=C/c2ccccc2)OC\1=O

["> 100 µM", "> 100 µM", "> 100 µM"]

====

System: CCRF-CEM leukemia
Test: NCI tumour cell line growth inhibition, 48 h
Property: TGI

CC(C)(C)N=c1n(C(C)(C)C)oc(=O)n1C(C)(C)C : > 100 µM
O=c1c2ncn(C3CC(O)C(CO)O3)c2nnn1Cc1ccccc1[N+](=O)[O-] (stereo not drawn) : > 100 µM

Moving on to the next compound.
Report TGI for COc1ccccc1NC(=O)C1=C(C)NC(C)=C(C(=O)Nc2ccccc2OC)C1c1ccccc1F
> 100 µM

====

Tested on: MDA-MB-435
The reply should name one outcome from Y (active), N (inactive)

Worked cases, answers included:
COC(=O)[C@]12CC[C@@H](C)[C@H](C)[C@@H]1C1=CC[C@@H]3[C@@]4(C)C[C@@H](OC(C)=O)[C@H](O)[C@@](C)(COC(C)=O)[C@@H]4[C@H](O)C[C@@]3(C)[C@]1(C)CC2 : N
Cc1sc(C(=O)Nc2cc(C(=O)NCCCN(C)C)n(C)c2)cc1NC(=O)CCCN1C(=O)c2cccc3cccc(c23)C1=O : N

I would be grateful if you could indicate the recorded call for CCN1C(=O)N(CC)C2C1NN=c1s/c(=C\c3cccnc3)c(=O)n12 (stereo not given) .
Y

I would be grateful if you could indicate the recorded call for CNC(=O)n1ccc2cc(Oc3ccnc(NC(=O)c4ccc(C5CCN(CCO)CC5)cc4)c3)c(OCCOC)cc21 .
N

I would be grateful if you could indicate the recorded call for O=C1c2ccccc2-c2c1c1ccccc1c(=O)n2CCCNCCCNCCCn1c2c(c3ccccc3c1=O)C(=O)c1ccccc1-2 .
Y

I would be grateful if you could indicate the recorded call for COC1(C(=O)N[C@@H](C)c2ccc(-n3cc(F)cn3)nc2)CCC(c2nc(C)cc(Nc3cc(C)[nH]n3)n2)CC1 (stereo not given in full) .
N

I would be grateful if you could indicate the recorded call for Cc1c(C(=O)/C=C/c2csc3ccccc23)[n+](=O)c2ccccc2n1[O-] .
N
